molecular target: human nuclease enzyme Caf1/CNOT7 (Homo sapiens, UniProt Q9UIV1); test: fluorescence-based nuclease activity assay; format: biochemical; settings: mean ± standard error; 0.4 µM Caf1/CNOT7, 1 µM Flc-RNA substrate, 30 °C, 60 min; read-out: IC50 versus Caf1/CNOT7
Sequence (Q9UIV1 whole entry): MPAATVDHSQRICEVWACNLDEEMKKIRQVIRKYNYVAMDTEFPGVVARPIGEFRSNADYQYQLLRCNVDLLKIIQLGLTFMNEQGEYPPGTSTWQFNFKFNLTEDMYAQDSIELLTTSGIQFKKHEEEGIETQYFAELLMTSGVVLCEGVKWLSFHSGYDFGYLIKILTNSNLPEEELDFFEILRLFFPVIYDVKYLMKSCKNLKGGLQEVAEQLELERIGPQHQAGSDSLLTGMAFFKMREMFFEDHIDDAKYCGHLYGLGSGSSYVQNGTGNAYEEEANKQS
Under this convention, Satisfied denotes IC50 strictly below 40 µM and Not satisfied denotes IC50 at or above 40 µM.

smiles	assigned.category
Cc1cccc(-n2cc(C(=O)c3cc(Br)ccc3O)cc(C#N)c2=O)c1	Satisfied
CCOC(=O)c1ccc(-n2cc(C(=O)c3cc(Br)ccc3O)cc(C#N)c2=O)cc1	Satisfied

Given the entry COc1ccc(-n2cc(C(=O)c3cc(Br)ccc3O)cc(C#N)c2=O)cc1 , would its reported IC50 be below 40 µM? Not satisfied

Hello, I'm reviewing records and need to know if IC50 of Cc1ccc(-n2cc(C(=O)c3cc(Br)ccc3O)cc(C#N)c2=O)cc1 is below 40 µM. Could you check? Not satisfied

----------
target: human nuclease enzyme Caf1/CNOT7 (Homo sapiens); test: fluorescence-based nuclease activity assay; type: biochemical; details: mean ± standard error; 0.4 µM Caf1/CNOT7, 1 µM Flc-RNA substrate, 30 °C, 60 min; read-out: IC50 versus Caf1/CNOT7
experimental.readout: pIC50
Answer as the number alone; pIC50 is minus log10 of concentration in mol/L.

The following molecules have reported results that may help.
smiles	study.target	pIC50
COc1ccccc1-n1cc(C(=O)c2cc(Br)ccc2O)cc(C#N)c1=O	human nuclease enzyme Caf1/CNOT7 (Homo sapiens)	4.09
Cc1ccccc1-n1cc(C(=O)c2cc(Br)ccc2O)cc(C#N)c1=O	human nuclease enzyme Caf1/CNOT7 (Homo sapiens)	4.35
N#Cc1cc(C(=O)c2cc(Br)ccc2O)cn(-c2ccccc2Cl)c1=O	human nuclease enzyme Caf1/CNOT7 (Homo sapiens)	4.18
N#Cc1cc(C(=O)c2cc(Br)ccc2O)cn(-c2cc(Cl)cc(Cl)c2)c1=O	human nuclease enzyme Caf1/CNOT7 (Homo sapiens)	4.72
N#Cc1cc(C(=O)c2cc(Br)ccc2O)cn(-c2cccc(C(F)(F)F)c2)c1=O	human nuclease enzyme Caf1/CNOT7 (Homo sapiens)	4.38

Per the reported human nuclease enzyme Caf1/CNOT7 (Homo sapiens) data, COc1cc(Cl)c(C)cc1-n1cc(C(=O)c2cc(Br)ccc2O)cc(C#N)c1=O has pIC50 of 4.62

----------
target: human nuclease enzyme Caf1/CNOT7 (Homo sapiens); assay: fluorescence-based nuclease activity assay; type: biochemical; details: mean ± standard error; 0.4 µM Caf1/CNOT7, 1 µM Flc-RNA substrate, 30 °C, 60 min; read-out: IC50 versus Caf1/CNOT7
experimental.readout: pIC50
Please express pIC50 as -log10 of the molar concentration.

Lab note: CCc1ccc(-n2cc(C(=O)c3cc(Br)ccc3O)cc(C#N)c2=O)cc1 gave pIC50 of 4.41

Given item N#Cc1cc(C(=O)c2cc(Br)ccc2O)cn(-c2ccccc2)c1=O , the value recorded as its pIC50 is 3.97

pIC50 in this record for N#Cc1cc(C(=O)c2cc(Br)ccc2O)cn(-c2ccc(F)c(Cl)c2)c1=O : 4.33

pIC50 recorded for this compound, N#Cc1cc(C(=O)c2cc(Br)ccc2O)cn(-c2ccccc2Oc2ccccc2)c1=O , is 4.41

Memo: N#Cc1cc(C(=O)c2cc(Br)ccc2O)cn(-c2ccc(Cl)cc2)c1=O , reported pIC50: 4.49

COc1cc(Cl)c(C)cc1-n1cc(C(=O)c2cc(F)ccc2O)cc(C#N)c1=O has a reported pIC50 of 4.47
